Test: cAMP Responsive Elements (CRE) small molecule agonists, cell-based qHTS assay: qHTS cell viability counter screen (AID 2060914);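 also: viability read after 3 h of compound exposure; nearly all actives have a fitted effect of over 50% in size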
Details: CRE-bla HEK293T viability, CellTiter-Glo luminescence, 5 h; series mostly up to 92.4 µM
Records with an inconclusive call do not appear. Calls of active or inactive are those of the source. Calls follow the shape of the dose curve; as a rule, active = well fitted cell-killing curve with a large enough effect in the repeat runs; inconclusive = weak or mixed curves, or effect the other way; inactive = flat fitted curve, though single readings scatter.
Outcome (select one): true = active, false = inactive

> print(dat)
                                   compound  assigned.class
1      COC(=O)Nc1cccc(OC(=O)Nc2cccc(C)c2)c1           false
2     Clc1cc(Cl)c(-c2cc(Cl)c(Cl)cc2Cl)cc1Cl           false
3  O=C(O)C1C(C(=O)O)C2(Cl)C(Cl)=C(Cl)C1(Cl)C2(Cl)Cl (stereo unspecified)           false
4                               ClCC(Cl)CCl           false
5  C[N+]1(C)[C@@H]2CC[C@H]1CC(OC(=O)C(CO)c1ccccc1)C2 (stereo partly specified)           false

Ask | Please share the test call associated with `CC(=O)[O][Pb]([c]1ccccc1)([c]1ccccc1)[c]1ccccc1` .
Reply | true

Ask | Please share the test call associated with `CN(C)CCc1c[nH]c2ccccc12` .
Reply | false

Ask | Please share the test call associated with `CCNc1nc(NC(C)C)nc(SC)n1` .
Reply | false

---

Assay: cAMP Responsive Elements (CRE) small molecule antagonists, cell-based qHTS assay: qHTS cell viability counter screen (AID 2060913); also: nearly all actives have a fitted effect of over 40% in size
Conditions: CRE-bla HEK293T viability, CellTiter-Glo luminescence, 5 h; series mostly up to 92.4 µM
Results filed as inconclusive are left out. The source made the active and inactive calls. The call rests on the fitted dose curve; in most records, active means well fitted cell-killing curve with a large enough effect in the repeat runs; inconclusive means weak or mixed curves, or effect the other way; inactive means flat fitted curve, though single readings scatter.
Outcome (select one): true (1) (active), false (0) (inactive)

Solved cases (3 shown):
> print(dat)
                        compound  assigned.class
1                      Nc1ccncc1       false (0)
2                CCCC[n+]1ccccc1       false (0)
3  COP(=S)(OC)Oc1cc(Cl)c(I)cc1Cl       false (0)

Ask | Please share the test call associated with `N#Cc1cc([N+](=O)[O-])ccc1N` .
Reply | false (0)

Ask | Please share the test call associated with CC(NC(C)(C)C)C(=O)c1cccc(Cl)c1 (centres undefined) .
Reply | false (0)

Ask | Please share the test call associated with `O=[N+]([O-])c1ccc(CCl)cc1` .
Reply | false (0)

Ask | Please share the test call associated with `CN=C=S` .
Reply | false (0)

Ask | Please share the test call associated with `CCC(CC)Nc1c([N+](=O)[O-])cc(C)c(C)c1[N+](=O)[O-]` .
Reply | false (0)

Ask | Please share the test call associated with `CCCN1CCC[C@@H]2Cc3nc(N)ncc3C[C@H]21` .
Reply | false (0)

---

Assay: cAMP Responsive Elements (CRE) small molecule antagonists, cell-based qHTS assay: qHTS cell viability counter screen (AID 2060913); also: nearly all actives have a fitted effect of over 40% in size
Settings: CRE-bla HEK293T viability, CellTiter-Glo luminescence, 5 h; series mostly up to 92.4 µM
Inconclusive results are not listed. Activity calls are given as the source filed them. The call rests on the fitted dose curve; in most records, active means well fitted cell-killing curve with a large enough effect in the repeat runs; inconclusive means weak or mixed curves, or effect the other way; inactive means flat fitted curve, though single readings scatter.
Outcome (select one): active, inactive

Solved cases (5 shown):
Molecule	Assigned class
c1ccc(CN2CCNCC2)cc1	inactive
CCCC(C)(COC(N)=O)COC(=O)NC(C)C (centres undefined)	inactive
O=[N+]([O-])C(Br)(CO)CO	inactive
BrCC(Br)(Br)Br	inactive
ClCc1ccc(Cl)cc1Cl	inactive

Ask | Please share the test call associated with `COc1cc(OC)nc(Oc2cccc(Oc3nc(OC)cc(OC)n3)c2C(=O)O)n1` .
Reply | inactive

Ask | Please share the test call associated with `CC(C)CCON=O` .
Reply | inactive

Ask | Please share the test call associated with `CON(C)C(=O)Nc1ccc(Br)cc1` .
Reply | inactive

Ask | Please share the test call associated with `O=C(Cl)c1ccc(Cl)cc1` .
Reply | inactive

---

Assay: cAMP Responsive Elements (CRE) small molecule agonists, cell-based qHTS assay: qHTS cell viability counter screen (AID 2060914);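 also: viability read after 3 h of compound exposure; nearly all actives have a fitted effect of over 50% in size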
Details: CRE-bla HEK293T viability, CellTiter-Glo luminescence, 5 h; series mostly up to 92.4 µM
Records with an inconclusive call do not appear. Calls of active or inactive are those of the source. The call rests on the fitted dose curve; in most records, active means well fitted cell-killing curve with a large enough effect in the repeat runs; inconclusive means weak or mixed curves, or effect the other way; inactive means flat fitted curve, though single readings scatter.
Outcome (select one): 1.0 = active, 0.0 = inactive

Compound	Assigned class
c1ccc2c(c1)Nc1ccccc1S2	0.0
CC(=O)[O][Sn]([c]1ccccc1)([c]1ccccc1)[c]1ccccc1	1.0
CC12CC1(C)C(=O)N(c1cc(Cl)cc(Cl)c1)C2=O (stereo not given)	0.0
CCOP(=S)(OCC)SCn1nnc2ccccc2c1=O	0.0
O=c1ccc(=O)[nH][nH]1	0.0
O=CNC(N1CCN(C(NC=O)C(Cl)(Cl)Cl)CC1)C(Cl)(Cl)Cl (stereo not given)	0.0

--- query ---
Ask | Please share the test call associated with `Cc1nc(N(C)C)nc(OC(=O)N(C)C)c1C` .
Reply | 0.0

---

Assay: cAMP Responsive Elements (CRE) small molecule antagonists, cell-based qHTS assay: qHTS cell viability counter screen (AID 2060913); also: nearly all actives have a fitted effect of over 40% in size
Conditions: CRE-bla HEK293T viability, CellTiter-Glo luminescence, 5 h; series mostly up to 92.4 µM
Results filed as inconclusive are left out. Calls of active or inactive are those of the source. Calls follow the shape of the dose curve; as a rule, active = well fitted cell-killing curve with a large enough effect in the repeat runs; inconclusive = weak or mixed curves, or effect the other way; inactive = flat fitted curve, though single readings scatter.
Property: outcome

> print(dat)
                                   molecule  property  reported.value
1                   CN(C)CCc1c[nH]c2ccccc12   outcome        inactive
2  CC(C)(C)NCC(O)c1ccccc1Cl (centres undefined)   outcome        inactive
3  CCCOc1nn(C(=O)NS(=O)(=O)c2ccccc2C(=O)OC)c(=O)n1C   outcome        inactive
4  CC(C)(c1ccccc1)c1cc(-n2nc3ccccc3n2)c(O)c(C(C)(C)c2ccccc2)c1   outcome        inactive
5                             CN(C)C1CCCCC1   outcome        inactive
6    COP(=O)(NC(C)=O)SC (centres undefined)   outcome        inactive
7  CC#C[C@]1(O)CC[C@H]2[C@@H]3C[C@H](C)C4=CC(=O)CC[C@]4(C)[C@H]3CC[C@@]21C   outcome        inactive
8      COP(=S)(OC)Oc1ccc(S(=O)(=O)N(C)C)cc1   outcome        inactive

Ask | // returns reported outcome for input `CCOC(=O)Nc1cccc(OC(=O)Nc2ccccc2)c1`
Reply | inactive

Ask | // returns reported outcome for input CCOP(=S)(OCC)Oc1ccc(S(C)=O)cc1 (centres undefined)
Reply | inactive

Ask | // returns reported outcome for input `C=CC(=O)NC(C)(C)CC(C)=O`
Reply | inactive

Ask | // returns reported outcome for input O=C1C2CC=CCC2C(=O)N1SC(Cl)(Cl)Cl (centres undefined)
Reply | inactive

Ask | // returns reported outcome for input `O=c1[nH]oc2c1CCNC2`
Reply | inactive

Ask | // returns reported outcome for input `Cc1nnc(-c2ccccc2)c(=O)n1N`
Reply | inactive

Ask | // returns reported outcome for input `CCCCP(CCCC)CCCC`
Reply | inactive

Ask | // returns reported outcome for input CC(O)CCl (centres undefined)
Reply | inactive

Ask | // returns reported outcome for input `CC(Cl)(Cl)Cl`
Reply | inactive

Ask | // returns reported outcome for input `N#CN=C(N)N`
Reply | inactive

Ask | // returns reported outcome for input `Nc1ccc(-c2ccc(N)c(N)c2)cc1N`
Reply | inactive

Ask | // returns reported outcome for input `O=C1C(Cl)=C(Cl)C(=O)C(Cl)=C1Cl`
Reply | inactive

Ask | // returns reported outcome for input `Cc1ccc(N)c(C)c1`
Reply | inactive

Ask | // returns reported outcome for input `Clc1ccccc1`
Reply | inactive

Ask | // returns reported outcome for input CN(CCCC(O)c1cccnc1)N=O (centres undefined)
Reply | inactive

Ask | // returns reported outcome for input `O=C(N[C@@H]1N=C(c2ccccc2F)c2cccc3c2N(CC3)C1=O)c1cc2ccccc2[nH]1`
Reply | inactive

Ask | // returns reported outcome for input CC1COC2(c3ccccc3Cl)c3cc(Cl)ccc3NC(=O)CN12 (centres undefined)
Reply | inactive

Ask | // returns reported outcome for input `BrC(Br)Br`
Reply | inactive

Ask | // returns reported outcome for input c1ccc(C2CO2)cc1 (centres undefined)
Reply | inactive

Ask | // returns reported outcome for input `Oc1ccccc1Br`
Reply | inactive

Ask | // returns reported outcome for input COc1cc(CC(C)N)cc(OC)c1OC (centres undefined)
Reply | inactive

Ask | // returns reported outcome for input `Oc1ccc(C2(c3ccc(O)cc3)CCCCC2)cc1`
Reply | inactive

Ask | // returns reported outcome for input `CCCCCCCCCBr`
Reply | inactive

Ask | // returns reported outcome for input `Nn1cnnc1`
Reply | inactive
